System: HT29 colon
Protocol Details: NCI tumour cell line growth inhibition, 48 h; in the data active = GI50 below about 0.43 µM; inactive = the rest
Please state which outcome applies, choosing from yes = active, no = inactive

| Compound | Assigned Category |
| --- | --- |
| CO[C@H](C(=O)N[C@@H](CCCCNC(=O)OCc1ccccc1)C(=O)OC(C)(C)C)[C@@H]1Cc2cc3cc(OC4CC(OC5CC(O)C(O)C(C)O5)C(O)C(C)O4)c(C)c(O)c3c(O)c2C(=O)[C@H]1OC1CC(OC2CC(OC3CC(C)(O)C(O)C(C)O3)C(O)C(C)O2)C(O)C(C)O1 (stereo not given in full) | no |

Req: Identify the outcome logged in this assay for the compound shown: O=C(/C=C\Sc1nccc(C(F)(F)F)n1)c1ccc(Br)cc1
Resp: no

Req: What do we get for COc1ccc(Nc2ccnc(NCCCNc3ccnc4cc(Cl)ccc34)n2)cc1 ?
Resp: yes

Req: What do we get for COc1cnc2c(c1)C(=O)c1c-2n(CCCN2CCN(C)CC2)c(=O)c2cc(Cl)ccc12 ?
Resp: no

Req: What do we get for CCCC(=O)NNc1[nH]c(-c2ccc(OC)cc2)cc1C(=O)OCC ?
Resp: no

Req: What do we get for CC/C(=C(\CC)c1ccc(OCCN(CC)CC)cc1)c1ccc(OCCN(CC)CC)cc1 ?
Resp: yes

Req: What do we get for O=C1/C(=C/c2ccc(Cl)cc2)CN(C(=O)C(Cl)Cl)C/C1=C\c1ccc(Cl)cc1 ?
Resp: yes

Req: What do we get for C[C@]12CCC(=O)C=C1CC[C@@H]1[C@@H]2CC[C@]2(C)C(=O)/C(=C/c3cccc(OCCN4CCOCC4)c3)C[C@@H]12 ?
Resp: no

Req: What do we get for COC(=O)Nc1nc2ccc(Oc3ccc(NC(=O)Nc4cccc(Cl)c4)cc3)cc2[nH]1 ?
Resp: no

Req: What do we get for Cc1cc(C)nc(SC2=C(Nc3cccc(Cl)c3)C(=O)N(Cc3ccccc3)C2=O)n1 ?
Resp: no

====

System: HCT-116 colon
Please state which outcome applies, choosing from 1 (active), -1 (inactive)

| Compound | Assigned Category |
| --- | --- |
| COC(=O)c1c2c(c(C)[n+]([O-])c1C)C(=O)C(NCc1ccc(F)c(F)c1)=CC2=O | -1 |
| COc1ccc(Nc2ccnc(NCCCNc3ccnc4cc(Cl)ccc34)n2)cc1 | 1 |
| CC/C(=C(\CC)c1ccc(OCCN(CC)CC)cc1)c1ccc(OCCN(CC)CC)cc1 | -1 |

Req: Identify the outcome logged in this assay for the compound shown: CC[C@H](C)C(=O)O[C@H]1CCC=C2C=C[C@H](C)C(CCC3C[C@@H](O)CC(=O)O3)[C@H]21 (some centres not stated)
Resp: -1

Req: What do we get for COc1cccc2c1c1nc3cc(C)c(C)cc3nc1n2CCN(C)C ?
Resp: 1

Req: What do we get for CCNc1nc(N2CC(=O)Nc3cc(OC)ccc32)c2ccccc2n1 ?
Resp: 1

Req: What do we get for Cc1ccc2sc3c(NCCCNCCO)nc4ccccc4c3c(=O)c2c1 ?
Resp: -1

====

Test system: NCI-H460 lung
I'd appreciate it if you could supply GI50 values for the items below.

Here's what some known entries look like.
| Compound | GI50 |
| --- | --- |
| CC/C(=C(\CC)c1ccc(OCCN(CC)CC)cc1)c1ccc(OCCN(CC)CC)cc1 | 3.86 µM |
| [N-]=[N+]=CC(=O)OCC(N)C(=O)O (stereo not drawn) | 1.27 µM |

For the next question, use this compound.
Req: Field request: GI50 | item: Cn1cc(C2=C(c3c4n(c5ccccc35)CCC(CN)CC4)C(=O)NC2=O)c2ccccc21 (stereo not drawn)
Resp: 4.21 µM

====

System: OVCAR-8 ovarian
Protocol Details: NCI tumour cell line growth inhibition, 48 h
Measurement Label: TGI

| Compound | TGI |
| --- | --- |
| Cc1c(Cl)ccc2c1NC(=O)C2(O)C1Cc2ccccc2C1=O (stereo not given) | > 100 µM |
| CSC(=N)N1N=C2c3ccccc3CC[C@@H]2[C@@H]1c1ccccc1 | 29.1 µM |

Working through the 3 compounds below one at a time, give TGI for each.
1. COC(=O)N/N=C(\C)C(CN1CCOCC1)C(c1ccccc1)c1cc2ccccc2oc1=O (stereo not given)
2. O=C(/C=C/c1ccccc1)CCC1C(=O)NC(=O)NC1=O
3. N#CC1=C(N)Nc2nc3ccccc3n2C1c1ccccc1 (stereo not given)

Resp:
["> 100 µM", "> 100 µM", "> 100 µM"]

====

Test system: HCC-2998 colon
Protocol Details: NCI tumour cell line growth inhibition, 48 h
I'd appreciate it if you could supply log10 TGI values for the items below.
Use the decimal logarithm of TGI (µM).

Here's what some known entries look like.
| Compound | log10 TGI |
| --- | --- |
| O=C1OC2(c3ccc(O)cc3Oc3cc(O)ccc32)c2c1c(-c1ccccc1)c(-c1ccccc1)c(-c1ccccc1)c2-c1ccccc1 | 1.48 |
| COc1cc(C(=O)n2nc(N3CCN(C)CC3)c3cc(N)ccc32)cc(OC)c1OC | 1.16 |
| Nc1ccc(Oc2ccc(C3(c4ccc(Oc5ccc(N)c(O)c5)cc4)C4CC5C6CC7CC5C3C(C7)C6C4)cc2)cc1O | 0.70 |
| O=c1[nH]n(Cc2ccccc2CCl)c2ccc([N+](=O)[O-])cc12 | 1.63 |

Working through the 7 compounds below one at a time, give log10 TGI for each.
1. CSC(=S)NNC(=O)c1ccncc1
2. COC(=O)C1=CC2OC1(C)C1(CC1)C2=O (stereo not given)
3. CC(=C(C(=O)O)C(=O)O)c1cc(-c2cccs2)cc(-c2ccc(Cl)cc2)c1O
4. Cn1cc(C2=C(c3c4n(c5ccccc35)CCC(CN)CC4)C(=O)NC2=O)c2ccccc21 (stereo not given)
5. COc1cc(/C=C2\N=C(c3ccccc3)N(/N=C/c3cc4cc(C)ccc4nc3Cl)C2=O)cc(OC)c1OC
6. COc1ccc(-c2nc(-c3nc4cc(C)c(C)cc4[nH]3)cc3c2[nH]c2ccccc23)cc1
7. O=C1/C(=C/c2ccc(Cl)cc2)CN(C(=O)C(Cl)Cl)C/C1=C\c1ccc(Cl)cc1

Resp:
1. 1.58
2. 1.53
3. 1.58
4. 0.93
5. 1.66
6. 1.98
7. -0.46

Working through the 7 compounds below one at a time, give log10 TGI for each.
1. O=c1c2c3c(sc2nc2n1N=CN(c1ccc(Cl)cc1)C2)CCCC3
2. O=C1c2ccccc2C(=O)c2c(O)c(O)cc(O)c21
3. CCN(CC)c1ccc2c(c1)N=C1N=CC=CN1C2(c1ccc(N(C)C)cc1)c1ccc(N(C)C)cc1
4. C=CC(c1ccccc1)C1(O)c2cccc(O)c2C(=O)c2c(O)cccc21 (stereo not given)
5. Nc1ccc(C(=O)NN2C(=O)C(Cl)C2c2ccccc2O)cc1 (stereo not given)
6. CO[C@H](C(=O)N[C@@H](CCCCNC(=O)OCc1ccccc1)C(=O)OC(C)(C)C)[C@@H]1Cc2cc3cc(OC4CC(OC5CC(O)C(O)C(C)O5)C(O)C(C)O4)c(C)c(O)c3c(O)c2C(=O)[C@H]1OC1CC(OC2CC(OC3CC(C)(O)C(O)C(C)O3)C(O)C(C)O2)C(O)C(C)O1 (stereo not given in full)
7. CC(C)=CCC/C(C)=C/CC/C(=C/COP(=O)(OCc1ccc([N+](=O)[O-])o1)N(C)CCCCCl)C(C)(C)C (stereo not given)

Resp:
1.86
1.93
1.12
1.36
1.99
0.51
0.36

====

I'd appreciate it if you could supply TGI values for the items below.
Test system: RXF 393 renal
Protocol Details: NCI tumour cell line growth inhibition, 48 h

| Compound | TGI |
| --- | --- |
| Cn1c2cccc3nnc4cccc(c4c32)n1C | > 100 µM |
| O=Cc1ccc2c(c1)CC1(C2)Cc2ccc(C=O)cc2C1 | > 25.4 µM |
| Nc1ccc(Oc2ccc(C3(c4ccc(Oc5ccc(N)c(O)c5)cc4)C4CC5C6CC7CC5C3C(C7)C6C4)cc2)cc1O | 4.5 µM |
| N#CC1=C(N)Nc2nc3ccccc3n2C1c1ccccc1 (stereo unspecified) | 56.3 µM |
| O=C(Nc1ccc(Br)c(Cl)c1)c1cc(F)ccc1O | 3.97 µM |

For the next question, use this compound.
Req: Field request: TGI | item: O=C(CCCN1CC=C(n2c(=O)[nH]c3ccccc32)CC1)c1cccs1
Resp: > 100 µM

====

System: UO-31 renal
Protocol Details: NCI tumour cell line growth inhibition, 48 h
Measurement Label: TGI

| Compound | Study System | Measurement Label | Recorded Measurement |
| --- | --- | --- | --- |
| CC(C)N1CCCOC(c2ccc([N+](=O)[O-])cc2)O1 (centres undefined) | UO-31 renal | TGI | > 100 µM |
| CNC(=O)CN(CC(N)=O)C(=O)NC | UO-31 renal | TGI | > 100 µM |
| O=C(/C=C\c1ccccc1-c1ccccc1)c1ccccc1 | UO-31 renal | TGI | > 100 µM |

Working through the 5 compounds below one at a time, give TGI for each.
1. COC(=O)/C(C#N)=C(\Nc1ccccc1)N1CCCCC1
2. CCOn1cc(C2=C(c3c[nH]c4ccccc34)C(=O)NC2=O)c2ccccc21
3. CC(=C(C(=O)O)C(=O)O)c1cc(-c2cccs2)cc(-c2ccc(Cl)cc2)c1O
4. O=c1[nH]c2ccsc2c(=O)n1COCc1ccccc1
5. CC/C(=C(\CC)c1ccc(OCCN(CC)CC)cc1)c1ccc(OCCN(CC)CC)cc1

Resp:
["> 100 µM", "> 47.4 µM", "24.5 µM", "> 100 µM", "11.3 µM"]

Working through the 2 compounds below one at a time, give TGI for each.
1. COc1ccc(OC)c2cc(C3(C)SCCCS3)ccc12
2. N#CC1=C(N2CCOCC2)CCC1

Resp:
> 100 µM
> 100 µM

Working through the 7 compounds below one at a time, give TGI for each.
1. C=C[C@]1(C)C=C2C(=O)[C@@]3(O)OC(=O)[C@@]4(CCCC(C)(C)[C@H]34)[C@@]2(O)CC1
2. Cc1ccccc1NC(=O)/C(C#N)=N\Nc1nc[nH]c1C(N)=O
3. Nc1nc(N)c(-c2ccc(Cl)cc2)c(CCC(=O)Nc2cccc(C(F)(F)F)c2)n1
4. Nc1nccc(Nc2ccc(S(N)(=O)=O)cc2)n1
5. Cc1nc2ccc(N=NN(C)C)cc2[nH]1
6. COc1cc(-c2c(C)c(C)nc(OC)c2C#N)cc(OC)c1OC
7. C=CC1(c2ccc(Br)cc2)OCCCO1

Resp:
1. 2.66 µM
2. > 100 µM
3. > 100 µM
4. > 100 µM
5. > 100 µM
6. > 100 µM
7. > 100 µM

Working through the 3 compounds below one at a time, give TGI for each.
1. Cc1ccc(S(=O)(=O)n2cc(C(=O)C(=O)Nc3ccncc3)c3ccccc32)cc1
2. O=C(/C=C/c1cccs1)c1ccc(C(=O)/C=C/c2cccs2)cc1
3. CCCCCCCCCCCCCCCCOCCCOP(=O)(O)C1CCCN(O)C1=O (centres undefined)

Resp:
["> 100 µM", "> 100 µM", "13.7 µM"]

Working through the 6 compounds below one at a time, give TGI for each.
1. O=C1c2ccccc2C(=O)c2c(O)c(O)cc(O)c21
2. Cc1cc(NCC2CC/C(=C\C=C\c3ccccc3)C2=O)no1 (centres undefined)
3. CCCC(=O)NNc1[nH]c(-c2ccc(OC)cc2)cc1C(=O)OCC
4. CC(C)N(c1cc2c(cc1F)c(=O)c(C(=O)O)cn2-c1ccc(N2CCN(C)CC2)cn1)C(C)C
5. C/C1=C\CC[C@@]2(C)O[C@@H]2[C@H]2OC(=O)C(C)C2C[C@H]1O (some centres undefined)
6. Cn1c2cccc3nnc4cccc(c4c32)n1C

Resp:
["49.2 µM", "> 100 µM", "37.8 µM", "> 100 µM", "> 100 µM", "> 100 µM"]

Working through the 5 compounds below one at a time, give TGI for each.
1. Cc1ccc(NC(=O)c2ccnc(N3CCCC3)c2)cc1-c1ccc(C(=O)NCC2CC2)cc1
2. COc1ccc(C(=O)N2CCN(c3ccc4[nH]c(=O)oc4c3)CC2)cc1
3. COc1cnc2c(c1)C(=O)c1c-2n(CCCN2CCN(C)CC2)c(=O)c2cc(Cl)ccc12
4. COC(=O)C#Cc1ccc([N+](=O)[O-])cc1
5. COC(=O)[C@]12CSC[C@H]1C[C@H](c1ccc(N(C)C)cc1)N2

Resp:
1: > 25 µM; 2: > 100 µM; 3: 22.8 µM; 4: 2.85 µM; 5: > 100 µM

Working through the 8 compounds below one at a time, give TGI for each.
1. NC(=O)c1cc(C2OC(CO)C(O)C2O)nn1-c1ccc([N+](=O)[O-])cc1 (centres undefined)
2. COc1ccc(CCN(C)C(=O)CC(C#N)(c2ccccc2)c2ccc(OC)c(OC)c2)cc1OC (centres undefined)
3. CO[C@H](c1ccccc1)[C@H](O)[C@](O)(c1ccccc1)P(=O)(OC)OC
4. C#C[C@@]1(O)[C@@H](CO)O[C@@H](n2cc(F)c3c(N)ncnc32)[C@@H]1O
5. COc1cc(CCCC(O)COc2cccc3c2C2(O)CCCCCC32)cc(OC)c1 (centres undefined)
6. Cc1ccc2sc3c(NCCCNCCO)nc4ccccc4c3c(=O)c2c1
7. COc1ccc(Nc2ccnc(NCCCNc3ccnc4cc(Cl)ccc34)n2)cc1
8. CCOC(=O)C1=C(C)N(NC(=O)c2ccccc2)C2(O)CCCC12C(=O)OCC (centres undefined)

Resp:
> 100 µM
> 100 µM
> 100 µM
2.48 µM
28.9 µM
2.58 µM
2.18 µM
> 100 µM

Working through the 5 compounds below one at a time, give TGI for each.
1. O=C(O)C(Br)Cc1ccc2c(c1)OCO2 (centres undefined)
2. CCOC(=O)c1c(Cl)c2c(n1Cc1cc(OC)cc(OC)c1)-c1oncc1CCC2
3. COc1cccc2c1c1nc3cc(C)c(C)cc3nc1n2CCN(C)C
4. Cc1ccc2[nH]c(=O)c(C(C#N)c3ccccc3)nc2c1 (centres undefined)
5. c1ccc2cc(Cn3c(-c4ccc5ccccc5c4)[n+](Cc4ccc5ccccc5c4)c4ccccc43)ccc2c1

Resp:
1. > 100 µM
2. > 100 µM
3. 2.37 µM
4. 69.9 µM
5. 2.3 µM
